# TESTED_ON: SIRT1 (Homo sapiens)
# ASSAY_PROCEDURE: Mass spectrometry based SIRT1 deacetylase activation assay
# Type: biochemical
# ASSAY_SETUP: 25 min, mass spectrometry assay, read-out: % Fold Act. (percent maximum fold activation)
# Text: A mass spectrometry based assay was used to identify modulators of SIRT1 activity. The mass spectrometry based assay utilizes a peptide having 20 amino acid residues as follows: Ac-EE-K(biotin)-GQSTSSHSK(Ac)NleSTEG-K(5TMR)-EE-NH2 (SEQ ID NO: 1) wherein K(Ac) is an acetylated lysine residue and Nle is a norleucine. The peptide is labeled with the fluorophore 5TMR (excitation 540 nm/emission 580 nm) at the C-terminus. The sequence of the peptide substrate is based on p53 with several modifications. […]
Can you tell me Emax for the items I'm about to list?

IN: Would you kindly share the measured Emax for `O=C(Nc1cccc2c(=O)cc(-c3ccccc3Cl)oc12)c1cncc(N2CCOCC2)n1` ?
OUT: > 200%

IN: Same question, `Cc1cnc(NC(=O)c2cccc3c(=O)cc(-c4ccccc4Br)oc23)s1` this time
OUT: < 200%

IN: Repeat with `CS(=O)(=O)c1cccc(-c2cc(=O)c3cccc(C(=O)Nc4ccccn4)c3o2)c1`
OUT: < 200%

IN: `Cn1nccc1C(=O)Nc1cccc2c(=O)cc(-c3ccccc3C(F)(F)F)oc12` ?
OUT: > 200%

IN: Next molecule up: O=C(Nc1cccc2c(=O)cc(-c3ccccc3Cl)oc12)c1cccnc1OCC(O)CO (stereo not drawn)
OUT: > 200%

IN: Then this molecule: `O=C(Nc1cccc2c(=O)cc(-c3ccccc3C(F)(F)F)oc12)c1cccc(N2CCOCC2)c1`
OUT: > 200%

IN: How about this molecule: `O=C(Nc1cccc2c(=O)cc(-c3cccc(C(F)(F)F)c3)oc12)c1cscn1`
OUT: < 200%

IN: Lookup `O=C(Nc1cccc2c(=O)cc(-c3cnccc3C(F)(F)F)oc12)c1cscn1`
OUT: > 200%

IN: Please answer likewise for `Cc1cnc(NC(=O)c2cccc3c(=O)cc(-c4cccnc4)oc23)s1`
OUT: < 200%

IN: Now this one: `O=C(Nc1cccc2c(=O)cc(-c3cccc(C(F)(F)F)c3)oc12)c1cccnc1OC[C@@H](O)CO`
OUT: < 200%

IN: Subsequent entry: `O=C(Nc1cccc2c(=O)cc(-c3ccccc3Br)oc12)c1cscn1`
OUT: > 200%

IN: Also check `Cc1cnc(NC(=O)c2cccc3c(=O)cc(-c4cccc(Br)c4)oc23)s1`
OUT: < 200%

IN: Subsequent entry: `CS(=O)(=O)c1cccc(-c2cc(=O)c3cccc(NC(=O)c4cscn4)c3o2)c1`
OUT: < 200%

IN: Now the same for `CS(=O)(=O)c1cccc(-c2cc(=O)c3cccc(NC(=O)c4cccnc4)c3o2)c1`
OUT: < 200%

IN: Follow-up item: `Cc1ccccc1-c1cc(=O)c2cccc(NC(=O)c3cscn3)c2o1`
OUT: < 200%

IN: How about `O=C(Nc1cccc2c(=O)cc(-c3cccc(C(F)(F)F)c3)oc12)c1ccc(OC[C@@H](O)CO)nc1` ?
OUT: < 200%

IN: Next up: `O=C(Nc1cccc2c(=O)cc(-c3ccccc3C(F)(F)F)oc12)c1cccnc1`
OUT: < 200%

IN: Would you kindly repeat that for `O=C(Nc1cccc2c(=O)cc(-c3cccc(C(F)(F)F)c3)oc12)c1ccnc(OC[C@@H](O)CO)c1` ?
OUT: < 200%

IN: Proceed to CN1CCCC1C(=O)Nc1cccc2c(=O)cc(-c3ccccc3C(F)(F)F)oc12 (stereo not drawn)
OUT: < 200%

IN: Check `O=C(Nc1cccc2c(=O)cc(-c3cccc(Br)c3)oc12)c1cscn1` too.
OUT: < 200%

IN: Similarly, `O=C(Nc1cccc2c(=O)cc(-c3ccccc3C(F)(F)F)oc12)c1cnccn1` ?
OUT: > 200%

IN: Check `O=C(Nc1cccc2c(=O)cc(-c3cccc(OC(F)(F)F)c3)oc12)c1cscn1` too.
OUT: < 200%

IN: Also check `Cn1ccc(C(=O)Nc2cccc3c(=O)cc(-c4ccccc4C(F)(F)F)oc23)n1`
OUT: > 200%

IN: // next record `Cn1cnc(C(=O)Nc2cccc3c(=O)cc(-c4ccccc4C(F)(F)F)oc23)c1`
OUT: > 200%

IN: Now try `O=C(Nc1nccs1)c1cccc2c(=O)cc(-c3cccc(N4CCOCC4)c3)oc12` .
OUT: < 200%

IN: Same for `O=C(Nc1cccc2c(=O)cc(-c3ccccc3N3CCOCC3)oc12)c1cscn1`
OUT: > 200%

IN: Same question for `O=C(Nc1cccc2c(=O)cc(-c3ccccc3C(F)(F)F)oc12)c1cccc(N2CCCC2)n1` please.
OUT: > 200%

IN: Next up: `Cc1cnc(NC(=O)c2cccc3c(=O)cc(-c4ccncc4)oc23)s1`
OUT: < 200%

IN: Next entry: `O=C(Nc1ccccn1)c1cccc2c(=O)cc(-c3cccc(N4CCOCC4)c3)oc12`
OUT: < 200%

IN: Field entry: `Cn1cncc1C(=O)Nc1cccc2c(=O)cc(-c3ccccc3C(F)(F)F)oc12`
OUT: > 200%

IN: Do the same for `O=C(Nc1cccc2c(=O)cc(-c3ccccc3C(F)(F)F)oc12)c1ccncc1` please
OUT: > 200%

IN: For `Cc1cnc(NC(=O)c2cccc3c(=O)cc(-c4cccnc4C(F)(F)F)oc23)s1` then?
OUT: < 200%

IN: What would you report for `Cc1cnc(NC(=O)c2cccc3c(=O)cc(-c4ccccc4OC(F)(F)F)oc23)s1` ?
OUT: < 200%

* * *

# TESTED_ON: SIRT1 (Homo sapiens)
# ASSAY_PROCEDURE: Mass spectrometry based SIRT1 deacetylase activation assay
# Type: biochemical
# ASSAY_SETUP: 25 min, mass spectrometry assay, read-out: % Fold Act. (percent maximum fold activation)
VALUE_KIND: Emax

IN: For the compound `Cn1cc(C(=O)Nc2cccc3c(=O)cc(-c4ccccc4C(F)(F)F)oc23)cn1` , what Emax is on record?
OUT: > 200%

IN: Ok, now `Cc1cnc(NC(=O)c2cccc3c(=O)cc(-c4ccccc4F)oc23)s1`
OUT: < 200%

IN: Try `O=C(Nc1nccs1)c1cccc2c(=O)cc(-c3cccc(OC(F)(F)F)c3)oc12` next.
OUT: < 200%

IN: Here is the next compound: `O=C(Nc1cccc2c(=O)cc(-c3ccc(Br)cc3)oc12)c1cscn1`
OUT: < 200%

* * *

Task for the reader: assign each of the following molecules its reported Emax.
# TESTED_ON: SIRT1 (Homo sapiens)
# Sequence (Q96EB6 1-747): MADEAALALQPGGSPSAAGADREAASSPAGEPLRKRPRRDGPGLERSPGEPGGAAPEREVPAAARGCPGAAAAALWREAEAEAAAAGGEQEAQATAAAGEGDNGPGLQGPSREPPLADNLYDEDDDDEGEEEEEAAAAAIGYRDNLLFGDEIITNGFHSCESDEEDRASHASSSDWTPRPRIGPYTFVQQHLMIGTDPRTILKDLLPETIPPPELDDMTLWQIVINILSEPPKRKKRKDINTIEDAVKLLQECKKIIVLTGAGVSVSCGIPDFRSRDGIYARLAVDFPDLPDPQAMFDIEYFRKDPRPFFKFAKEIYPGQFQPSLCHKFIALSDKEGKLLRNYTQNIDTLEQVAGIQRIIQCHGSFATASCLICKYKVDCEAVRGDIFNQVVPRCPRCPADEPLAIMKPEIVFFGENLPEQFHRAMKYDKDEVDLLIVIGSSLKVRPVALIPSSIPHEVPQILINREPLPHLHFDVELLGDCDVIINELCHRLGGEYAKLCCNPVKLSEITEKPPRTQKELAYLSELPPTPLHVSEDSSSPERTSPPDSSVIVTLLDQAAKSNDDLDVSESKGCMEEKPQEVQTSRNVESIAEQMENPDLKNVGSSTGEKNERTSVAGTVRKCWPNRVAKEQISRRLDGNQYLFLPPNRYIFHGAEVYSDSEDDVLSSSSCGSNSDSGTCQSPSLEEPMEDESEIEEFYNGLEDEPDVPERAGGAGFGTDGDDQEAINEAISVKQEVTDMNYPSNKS
# ASSAY_PROCEDURE: Mass spectrometry based SIRT1 deacetylase activation assay
# Assay type: biochemical
# ASSAY_SETUP: 25 min, mass spectrometry assay, read-out: % Fold Act. (percent maximum fold activation)

IN: Given the molecule `O=C(Nc1cccc2c(=O)cc(-c3ccccc3C(F)F)oc12)c1cccc(CN2CCOCC2)n1` , what is its reported Emax?
OUT: > 200%

IN: Next up: `O=C(Nc1cccc2c(=O)cc(-c3c(F)cccc3F)oc12)c1cscn1`
OUT: < 200%

IN: Quick one: `O=C(Nc1cccc2c(=O)cc(-c3c(Cl)cccc3Cl)oc12)c1cnccn1`
OUT: > 200%

IN: Can you check `O=C(Nc1cccc2c(=O)cc(-c3cc(F)ccc3F)oc12)c1cnccn1` next?
OUT: < 200%

IN: Could you do the same for `Cn1nccc1C(=O)Nc1cccc2c(=O)cc(-c3ccccc3Cl)oc12` , please?
OUT: > 200%

IN: Then what about the molecule `O=C(Nc1cccc2c(=O)cc(-c3ccccc3C(F)(F)F)oc12)c1cccc(CN2CCOCC2)c1` ?
OUT: > 200%

IN: Thanks! And `O=C(Nc1cccc2c(=O)cc(-c3cccc(C(F)(F)F)c3)oc12)c1ccccn1` ?
OUT: < 200%

IN: How about this molecule: `O=C(Nc1cccc2c(=O)cc(-c3cccc(N4CCOCC4)c3)oc12)c1ccccn1`
OUT: < 200%

IN: Check `O=C(Nc1cccc2c(=O)cc(-c3ccccc3OC(F)(F)F)oc12)c1cnccn1` too.
OUT: > 200%

IN: Query `O=C(Nc1cccc2c(=O)cc(-c3cccc(F)c3F)oc12)c1cscn1` next
OUT: < 200%

IN: # iterate: `O=C(Nc1cccc2c(=O)cc(-c3ccccc3C(F)(F)F)oc12)c1cscn1`
OUT: > 200%

IN: What about `O=C(Nc1cccc2c(=O)cc(-c3ccccc3C(F)(F)F)oc12)c1ncccn1` ?
OUT: > 200%

IN: Now this one: `CS(=O)(=O)c1ccccc1-c1cc(=O)c2cccc(NC(=O)c3cnccn3)c2o1`
OUT: < 200%

IN: And the next one, `O=C(Nc1cccc2c(=O)cc(-c3cccc(F)c3F)oc12)c1cnccn1` ?
OUT: < 200%

IN: `COc1ccccc1-c1cc(=O)c2cccc(NC(=O)c3cnccn3)c2o1` , same question.
OUT: < 200%

IN: Try the molecule `Cc1cnc(NC(=O)c2cccc3c(=O)cc(-c4ccccc4Cl)oc23)s1`
OUT: < 200%

IN: Quick one: `O=C(Nc1cccc2c(=O)cc(-c3ccccc3OC(F)F)oc12)c1cscn1`
OUT: < 200%
